Molecular target: phiYFP (yellow fluorescent protein from the jellyfish Phialidium sp.) (Phialidium sp. SL-2003)
Test: fluorescence titration, single site binding model

molecule	Kd [mM]
I [iodide]	50
